- Test system: PPARg DBDmut:RXRa IVT, anti-PPARg (DBD mutation: PPARg1 K132A/R137A, NR concentration 270 nM, RXRa partner concentration 90 nM)
- Assay details: PBM binding z-score (relative to random genomic background probes); higher = stronger binding; sequences stand for … in GC…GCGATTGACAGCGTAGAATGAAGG
Measured quantity: PBM binding z-score
Numbers only.

Examples from the recorded data:
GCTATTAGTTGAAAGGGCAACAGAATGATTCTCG :: 0.63
TCATATAGGTGATACAGGTGAAAGTCGGCATCTA :: 1.81
CCGACTGGGGCATAAGGTTACAATAAGCCAGCCC :: -1.72
ATCTCTAGGTTAGACTCAGTTCAGTGAAGAACGC :: 1.55
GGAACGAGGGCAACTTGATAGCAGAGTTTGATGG :: 0.236

Each sequence below has a recorded value; state its PBM binding z-score.
1. AGTCAAAGTTCAGCTAGGTAACGTAAGATATGCT
2. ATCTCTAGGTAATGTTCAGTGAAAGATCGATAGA
3. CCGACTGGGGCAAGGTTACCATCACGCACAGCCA

0.968
1.27
-0.952

====

- System: PXR homodimer (NR concentration 270 nM)
- Assay details: PBM binding z-score (relative to random genomic background probes); higher = stronger binding; sequences stand for … in GC…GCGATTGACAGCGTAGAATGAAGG
Exercise: for every item that follows, state its recorded PBM binding z-score.
Give bare numbers.

Examples from the recorded data:
TCATGTAGATCAAAGGTTAAGAAAGCCGAAGCCT :: 0.246
CGTCCAAGGTCAGAGAGGTCAGTGATTGCCGAGT :: 10.6
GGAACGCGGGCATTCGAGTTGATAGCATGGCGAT :: -0.449

Now look at this entry.
Name the reported PBM binding z-score value associated with the sequence "TGAATGAGGTTAAAGATCATGGAACGTGGCGTCG" 0.119

====

- System: RARa homodimer (NR concentration 270 nM)
- Assay details: PBM binding z-score (relative to random genomic background probes); higher = stronger binding; sequences stand for … in GC…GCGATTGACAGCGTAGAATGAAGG
Exercise: for every item that follows, state its recorded PBM binding z-score.
Numbers only.

Examples from the recorded data:
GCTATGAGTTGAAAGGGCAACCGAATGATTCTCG :: 0.195
CCTACTGGACCATCAGGTCATTGATATCAACGTT :: 1.47

Each sequence below has a recorded value; state its PBM binding z-score.
1. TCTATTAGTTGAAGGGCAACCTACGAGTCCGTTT
2. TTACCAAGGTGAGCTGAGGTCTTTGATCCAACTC
3. GCGACTGGGGCATCAGCTGGTTACCATAACTTAA
4. CCTCAAAGTTCAACTAAGGTAACGTAAAGCACGC

1. 1.08
2. -0.713
3. -1.25
4. 3.41

====

Exercise: for every item that follows, state its recorded PBM binding z-score.
- Tested on: PPARg:RXRa 90nM:30nM, anti-RXR (NR concentration 90 nM, RXRa partner concentration 30 nM)
- Assay details: PBM binding z-score (relative to random genomic background probes); higher = stronger binding; sequences stand for … in GC…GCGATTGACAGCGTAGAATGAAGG
Give bare numbers.

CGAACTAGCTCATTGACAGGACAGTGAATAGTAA :: -0.396
CCTCGGAGGACAGAAGGTCAGCGCTGTCCGCTTT :: 0.613

Each sequence below has a recorded value; state its PBM binding z-score.
1. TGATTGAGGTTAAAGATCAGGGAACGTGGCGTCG
2. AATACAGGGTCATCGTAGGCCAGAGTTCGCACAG
3. ACTCAAAGTTCATCTAGGTAACGTAAGATATGCT
4. TCATAGAGGTAATACAGGTGAAAGTCGGCATCTA
5. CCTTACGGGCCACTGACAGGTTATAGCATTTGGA
6. AGATGTAGGTTAGCTGGGGTCATTCAGACTAGGC

1. 5.94
2. 5.18
3. 2.74
4. 2.46
5. -0.254
6. 3.72

Each sequence below has a recorded value; state its PBM binding z-score.
1. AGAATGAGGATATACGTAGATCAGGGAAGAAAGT
2. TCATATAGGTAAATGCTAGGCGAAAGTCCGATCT
3. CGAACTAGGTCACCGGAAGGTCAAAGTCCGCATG
4. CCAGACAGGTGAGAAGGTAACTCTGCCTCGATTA
5. TCATATAGGTAAATGCTAGGTGAAAGACCGATCT
6. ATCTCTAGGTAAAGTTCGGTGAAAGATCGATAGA

1. -0.000713
2. 2.88
3. 7.57
4. 0.346
5. 2.96
6. 2.34

Each sequence below has a recorded value; state its PBM binding z-score.
1. CGTCCAAGGTCAAGGCTAGGTCAGTGAAAGCATT
2. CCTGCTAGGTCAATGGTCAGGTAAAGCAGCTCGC

1. 4.01
2. 4.62

====

Exercise: for every item that follows, state its recorded PBM binding z-score.
- Test system: RXRa homodimer (NR concentration 180 nM)
- Assay details: PBM binding z-score (relative to random genomic background probes); higher = stronger binding; sequences stand for … in GC…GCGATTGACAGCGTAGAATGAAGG
One number for each entry.

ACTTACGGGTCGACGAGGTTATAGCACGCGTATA :: 2.93
ATATGTAGGTTATCGGGTAATTCAGTTTGCGCAT :: 1.05
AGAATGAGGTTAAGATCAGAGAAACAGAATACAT :: 2.36
TCATATAGCTAAAAGGTGAAAGTCGGTGTGGTAA :: 1.4
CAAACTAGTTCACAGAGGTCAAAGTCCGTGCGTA :: 6.83

Now look at this entry.
Name the reported PBM binding z-score value associated with the sequence "TCATATCGGTAATACAGGTGAAAGTCGGCATCTA" 0.783

====

- Tested on: PPARg:RXRa 270nM:90nM, anti-RXR (NR concentration 270 nM, RXRa partner concentration 90 nM)
- Assay details: PBM binding z-score (relative to random genomic background probes); higher = stronger binding; sequences stand for … in GC…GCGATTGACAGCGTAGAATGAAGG
Measured quantity: PBM binding z-score
Numbers only.

Examples from the recorded data:
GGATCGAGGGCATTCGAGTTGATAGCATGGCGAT :: 0.681
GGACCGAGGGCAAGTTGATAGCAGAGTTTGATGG :: 0.00699
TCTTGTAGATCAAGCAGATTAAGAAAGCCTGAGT :: 1.19
ACGATTAGTTGAGACGAGGGCAACCGATAGGTTG :: -0.0475
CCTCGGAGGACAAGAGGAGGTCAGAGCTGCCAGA :: -0.135
TCATATGGGTAAAGGTGAAAGTCGAACGATATGA :: 5.52

Each sequence below has a recorded value; state its PBM binding z-score.
1. ATCTCTAGGTAACCAACTTCAGTGAATGCCGAAC
2. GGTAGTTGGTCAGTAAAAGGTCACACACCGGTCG

[0.519, 4.44]

====

- Tested on: PPARa:RXRa (NR concentration 270 nM, RXRa partner concentration 90 nM)
- Assay details: PBM binding z-score (relative to random genomic background probes); higher = stronger binding; sequences stand for … in GC…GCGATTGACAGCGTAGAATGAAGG
Our labelling divides records by PBM binding z-score into ranges: bucket 1 = under 0.4, bucket 2 = from 0.4 up to 3, bucket 3 = 3 and over

ATCTCTAGGTAAAGATAGTTGAGTGAATGCAAAT :: bucket 2
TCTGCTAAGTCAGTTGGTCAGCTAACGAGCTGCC :: bucket 1

Kindly consider the entry below.
Which class holds "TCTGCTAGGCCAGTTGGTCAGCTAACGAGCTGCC" ? bucket 1

====

- Test system: PPARa:RXRa (NR concentration 270 nM, RXRa partner concentration 90 nM)
- Assay details: PBM binding z-score (relative to random genomic background probes); higher = stronger binding; sequences stand for … in GC…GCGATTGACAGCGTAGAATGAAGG
Measured quantity: PBM binding z-score
Give bare numbers.

Examples from the recorded data:
TCTGCTAGGTCAGTCGGTCAGCTAACGAGCTGCC :: 1.92
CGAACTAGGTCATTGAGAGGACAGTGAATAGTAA :: 4.37

Now look at this entry.
Please state recorded PBM binding z-score (tested on PPARa:RXRa (NR concentration 270 nM, RXRa partner concentration 90 nM)) of "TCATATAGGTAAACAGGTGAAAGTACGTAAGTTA" 2.74

====

- Tested on: RARa:RXR (NR concentration 270 nM, RXRa partner concentration 90 nM)
- Assay details: PBM binding z-score (relative to random genomic background probes); higher = stronger binding; sequences stand for … in GC…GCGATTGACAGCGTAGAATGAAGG
Measured quantity: PBM binding z-score
Give bare numbers.

Examples from the recorded data:
AGAACGAGGTTACCAAAGATCAGGGAAACGCTTG :: 1.66
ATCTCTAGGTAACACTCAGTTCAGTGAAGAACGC :: 1.13
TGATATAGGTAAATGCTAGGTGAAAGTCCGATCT :: 0.178

Each sequence below has a recorded value; state its PBM binding z-score.
1. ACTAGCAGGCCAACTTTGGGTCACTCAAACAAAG
2. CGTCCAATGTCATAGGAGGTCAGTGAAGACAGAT

1: 1.52; 2: 2.69
